# Tested on: LCC6, LCC6MDR and L929 cell lines
# assay.info: Cytotoxicity over LCC6, LCC6MDR and L929 cell lines
# Type: cell-based, human, mouse
Consider the following compounds; for each one, report its IC50.

Would you please look over these solved cases?
Query: IC50; subject: CCN(CCOCCOc1ccc(-c2cc(=O)c3ccccc3o2)cc1)CCOCCOc1ccc(-c2cc(=O)c3ccccc3o2)cc1 [Compound 13] 6.9 to 17.3 µM

Query: IC50; subject: O=c1cc(-c2ccc(OCCOCCN(CCO)CCOCCOc3ccc(-c4cc(=O)c5ccccc5o4)cc3)cc2)oc2ccccc12 [Compound 14] 6.9 to 14.8 µM

Query: IC50; subject: CCOC(=O)CCN(CCOCCOc1ccc(-c2cc(=O)c3ccccc3o2)cc1)CCOCCOc1ccc(-c2cc(=O)c3ccccc3o2)cc1 [Compound 15] 13.5 to 17.7 µM

New cases:
Query: IC50; subject: Cc1ccc2oc(-c3ccc(OCCOCCN(CCOCCOc4ccc(-c5cc(=O)c6cc(C)ccc6o5)cc4)C(=O)OC(C)(C)C)cc3)cc(=O)c2c1 [Compound 17c] > 100 µM

====

# assay.info: Tumor cell line cytotoxicity of flavonoid dimers, LCC6
# Format: cell-based, human
# run.parameters: human, LCC6 cells, IC50 of compound alone
Consider the following molecules; for each one, report its IC50 at 72 h.
Numbers only, in µM.

Query: IC50 at 72 h; subject: CC(C)(C)OC(=O)N(CCOCCOc1ccc(-c2cc(=O)c3ccccc3o2)cc1)CCOCCOc1ccc(-c2cc(=O)c3ccccc3o2)cc1 [Compound 16a] 8

Take each entry in turn and give its IC50 at 72 h.
1. O=c1cc(-c2ccc(OCCOCCN(CCOCCOc3ccc(-c4cc(=O)c5ccccc5o4)cc3)Cc3ccc(F)c(F)c3)cc2)oc2ccccc12
2. COC(=O)c1ccc(CN(CCOCCOc2ccc(-c3cc(=O)c4ccccc4o3)cc2)CCOCCOc2ccc(-c3cc(=O)c4ccccc4o3)cc2)cc1

1: 32.5; 2: 33.3

====

# tested.system: Pgp (LCC6MDR cells) (Homo sapiens, UniProt P08183)
# Sequence (P08183 whole entry): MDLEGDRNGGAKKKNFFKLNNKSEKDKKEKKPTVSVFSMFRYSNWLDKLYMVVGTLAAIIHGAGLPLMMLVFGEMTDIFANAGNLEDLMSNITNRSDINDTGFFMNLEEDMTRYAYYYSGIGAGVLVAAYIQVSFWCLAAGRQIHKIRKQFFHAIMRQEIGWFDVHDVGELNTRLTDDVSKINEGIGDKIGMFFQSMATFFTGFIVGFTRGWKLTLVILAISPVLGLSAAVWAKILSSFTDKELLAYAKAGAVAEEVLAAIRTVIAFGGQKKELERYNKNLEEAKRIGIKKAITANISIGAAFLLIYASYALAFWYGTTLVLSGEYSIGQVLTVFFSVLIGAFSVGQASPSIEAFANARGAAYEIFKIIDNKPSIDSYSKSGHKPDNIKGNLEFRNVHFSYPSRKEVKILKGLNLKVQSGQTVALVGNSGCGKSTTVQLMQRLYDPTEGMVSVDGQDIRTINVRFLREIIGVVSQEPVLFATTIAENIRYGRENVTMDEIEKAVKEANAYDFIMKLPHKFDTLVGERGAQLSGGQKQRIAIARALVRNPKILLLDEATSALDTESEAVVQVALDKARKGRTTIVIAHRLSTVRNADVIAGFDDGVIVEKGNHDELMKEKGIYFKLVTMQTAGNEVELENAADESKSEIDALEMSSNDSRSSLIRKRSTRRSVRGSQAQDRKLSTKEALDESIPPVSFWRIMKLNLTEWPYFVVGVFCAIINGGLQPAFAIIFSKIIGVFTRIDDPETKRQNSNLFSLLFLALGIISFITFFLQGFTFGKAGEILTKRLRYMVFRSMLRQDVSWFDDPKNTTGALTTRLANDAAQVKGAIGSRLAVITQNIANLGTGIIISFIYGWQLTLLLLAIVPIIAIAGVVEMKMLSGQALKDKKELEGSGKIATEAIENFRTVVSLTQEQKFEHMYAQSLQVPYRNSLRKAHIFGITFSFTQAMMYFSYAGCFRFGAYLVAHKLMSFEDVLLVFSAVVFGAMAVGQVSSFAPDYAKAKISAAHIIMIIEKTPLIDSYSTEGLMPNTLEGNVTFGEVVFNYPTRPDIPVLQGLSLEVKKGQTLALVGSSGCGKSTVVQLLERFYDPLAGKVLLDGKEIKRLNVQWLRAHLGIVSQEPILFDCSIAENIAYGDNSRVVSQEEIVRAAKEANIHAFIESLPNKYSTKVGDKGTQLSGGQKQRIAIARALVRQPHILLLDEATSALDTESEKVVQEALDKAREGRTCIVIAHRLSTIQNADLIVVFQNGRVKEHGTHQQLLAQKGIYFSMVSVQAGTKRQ
# assay.info: Cell proliferation assay: Pgp-modulating activity, reversal of anticancer drug resistance in LCC6MDR cells
# run.parameters: EC50 of compounds for reversing anticancer drug resistance (nM), Paclitaxel, LCC6MDR
Mark satisfied only when EC50 stays strictly below 200 nM. Values equal to the cut-off are not satisfied.

Some solved cases for reference:
# check: EC50 < 200 nM for "O=c1cc(-c2ccc(OCCOCCN(CCCc3ccccc3)CCOCCOc3ccc(-c4cc(=O)c5ccccc5o4)cc3)cc2)oc2ccccc12" not satisfied

# check: EC50 < 200 nM for "O=c1cc(-c2ccc(OCCOCCN(CCOCCOc3ccc(-c4cc(=O)c5ccccc5o4)cc3)Cc3ccc(F)cc3F)cc2)oc2ccccc12" not satisfied

# check: EC50 < 200 nM for "O=c1cc(-c2ccc(OCCOCCN(CCOCCOc3ccc(-c4cc(=O)c5ccccc5o4)cc3)Cc3ccccc3F)cc2)oc2ccccc12" satisfied

# check: EC50 < 200 nM for "O=c1cc(-c2ccc(OCCOCCN(CCOCCOc3ccc(-c4cc(=O)c5ccccc5o4)cc3)CC3CCCCC3)cc2)oc2ccccc12" satisfied

New cases:
# check: EC50 < 200 nM for "O=c1cc(-c2ccc(OCCOCCN(CCOCCOc3ccc(-c4cc(=O)c5ccccc5o4)cc3)Cc3ccc(F)cc3)cc2)oc2ccccc12" not satisfied

====

# assay.info: Tumor cell line cytotoxicity of flavonoid dimers, LCC6MDR
# Assay type: cell-based, human
# run.parameters: human, LCC6MDR cells, IC50 of compound alone
measured.metric: IC50 at 72 h

Would you please look over these solved cases?
Query: IC50 at 72 h; subject: O=c1cc(-c2ccc(OCCOCCN(CCOCCOc3ccc(-c4cc(=O)c5ccccc5o4)cc3)Cc3cccc4ccccc34)cc2)oc2ccccc12 [Compound 59] > 100 µM

Query: IC50 at 72 h; subject: CCc1ccc(CN(CCOCCOc2ccc(-c3cc(=O)c4ccccc4o3)cc2)CCOCCOc2ccc(-c3cc(=O)c4ccccc4o3)cc2)cc1 [Compound 53] > 100 µM

Take each entry in turn and give its IC50 at 72 h.
1. O=c1cc(-c2ccc(OCCOCCN(CCOCCOc3ccc(-c4cc(=O)c5ccccc5o4)cc3)Cc3ccccn3)cc2)oc2ccccc12 [Compound 22]
2. O=c1cc(-c2ccc(OCCOCCN(CCOCCOc3ccc(-c4cc(=O)c5ccccc5o4)cc3)Cc3cccc(Cl)c3)cc2)oc2ccccc12 [Compound 48]
3. C[C@H](N)C(=O)N(CCOCCOc1ccc(-c2cc(=O)c3ccccc3o2)cc1)CCOCCOc1ccc(-c2cc(=O)c3ccccc3o2)cc1 [Compound 23b]
4. O=c1cc(-c2ccc(OCCOCCN(CCOCCOc3ccc(-c4cc(=O)c5ccccc5o4)cc3)Cc3cccc(-c4ccccc4)c3)cc2)oc2ccccc12 [Compound 56]

1: 29.7 µM; 2: > 98 µM; 3: 4.6 µM; 4: > 100 µM

====

Consider the following molecules; for each one, report its IC50 at 72 h.
# assay.info: Tumor cell line cytotoxicity of flavonoid dimers, LCC6MDR
# Assay type: cell-based, human
# run.parameters: human, LCC6MDR cells, IC50 of compound alone
# Protocol: (b) Tumor Cell Line Cytotoxicity. The tumor cytotoxicity assays of flavonoid dimers were performed against LCC6, LCC6MDR and L929 cell lines. […] In brief, LCC6, LCC6MDR and L929 cells were seeded into 96-well flat bottom microtiter plate at 1×10^4 cells per well in a final volume of 100 μL media, respectively. A graded dose of flavonoid dimers was added into wells. The plate was incubated at 37° C. for 72 hrs at the atmosphere 5% CO2 in the air. The % of survivors was determined.

Would you please look over these solved cases?
Query: IC50 at 72 h; subject: O=c1cc(-c2ccc(OCCOCCN(CCOCCOc3ccc(-c4cc(=O)c5ccccc5o4)cc3)Cc3ccncn3)cc2)oc2ccccc12 [Compound 64e] > 50 µM

Query: IC50 at 72 h; subject: "Cc1ccccc1CN(CCOCCOc1ccc(-c2cc(=O)c3ccccc3o2)cc1)CCOCCOc1ccc(-c2cc(=O)c3ccccc3o2)cc1" > 100 µM

Query: IC50 at 72 h; subject: "COc1cccc(CN(CCOCCOc2ccc(-c3cc(=O)c4ccccc4o3)cc2)CCOCCOc2ccc(-c3cc(=O)c4ccccc4o3)cc2)c1" > 100 µM

Query: IC50 at 72 h; subject: "O=c1cc(-c2ccc(OCCOCCN(CCOCCOc3ccc(-c4cc(=O)c5ccccc5o4)cc3)Cc3ccc(F)c(F)c3)cc2)oc2ccccc12" 33.6 µM

Take each entry in turn and give its IC50 at 72 h.
1. O=c1cc(-c2ccc(OCCOCCN(CCOCCOc3ccc(-c4cc(=O)c5ccccc5o4)cc3)Cc3ccccc3)cc2)oc2ccccc12
2. CC(C)(C)OC(=O)N(CCOCCOc1ccc(-c2cc(=O)c3ccccc3o2)cc1)CCOCCOc1ccc(-c2cc(=O)c3ccccc3o2)cc1 [Compound 16a]

1: > 63 µM; 2: 6.2 µM

Take each entry in turn and give its IC50 at 72 h.
1. COc1cc(-c2cc(=O)c3ccccc3o2)ccc1OCCOCCN(CCOCCOc1ccc(-c2cc(=O)c3ccccc3o2)cc1OC)C(=O)OC(C)(C)C [Compound 16b]
2. COc1cc(CN(CCOCCOc2ccc(-c3cc(=O)c4ccccc4o3)cc2)CCOCCOc2ccc(-c3cc(=O)c4ccccc4o3)cc2)cc(OC)c1

1: 6.9 µM; 2: > 100 µM

====

# assay.info: Tumor cell line cytotoxicity of flavonoid dimers, LCC6MDR
# Format: cell-based, human
# run.parameters: human, IC50 of compound alone
measured.metric: IC50 at 72 h (µM)
Answers are plain numbers, in µM.

Query: IC50 at 72 h; subject: C/C=C/C[C@@H](C)C(=O)[C@H]1C(=O)N[C@@H](C(C)C)C(=O)N(C)CC(=O)N(C)[C@@H](CC(C)C)C(=O)N[C@@H](C(C)C)C(=O)N(C)[C@@H](CC(C)C)C(=O)N[C@@H](C)C(=O)N[C@H](C)C(=O)N(C)[C@@H](CC(C)C)C(=O)N(C)[C@@H](CC(C)C)C(=O)N(C)[C@@H](C(C)C)C(=O)N1C [PSC833, reference compound] 14.6

====

Consider the following compounds; for each one, report its IC50 at 72 h.
# assay.info: Cytotoxicity of flavonoid dimers, L929 mouse fibroblast
# Type: cell-based
# run.parameters: mouse, L929 fibroblast cells, IC50 of compound alone, 72 hrs, mouse fibroblast

Would you please look over these solved cases?
Query: IC50 at 72 h; subject: "O=c1cc(-c2ccc(OCCOCCN(CCOCCOc3ccc(-c4cc(=O)c5ccccc5o4)cc3)CC3CCCCC3)cc2)oc2ccccc12" 18.9 µM

Query: IC50 at 72 h; subject: Cc1ccc2oc(-c3ccc(OCCOCCNCCOCCOc4ccc(-c5cc(=O)c6cc(C)ccc6o5)cc4)cc3)cc(=O)c2c1 [Compound 12c] 6 µM

Take each entry in turn and give its IC50 at 72 h.
1. COc1ccc(CN(CCOCCOc2ccc(-c3cc(=O)c4ccccc4o3)cc2)CCOCCOc2ccc(-c3cc(=O)c4ccccc4o3)cc2)cc1 [Compound 42a]
2. O=C1c2ccccc2C(=O)N1CCN(CCOCCOc1ccc(-c2cc(=O)c3ccccc3o2)cc1)CCOCCOc1ccc(-c2cc(=O)c3ccccc3o2)cc1 [Compound 23c]
3. O=c1cc(-c2ccc(OCCOCCN(CCOCCOc3ccc(-c4cc(=O)c5ccccc5o4)cc3)Cc3ccc([N+](=O)[O-])cc3)cc2)oc2ccccc12
4. O=c1cc(-c2ccc(OCCOCCN(CCOCCOc3ccc(-c4cc(=O)c5ccccc5o4)cc3)Cc3ccnc(Br)c3)cc2)oc2ccccc12 [Compound 64b]

> 100 µM
17 µM
88 µM
> 100 µM
